All figures here come from the domain aggregation screens of Martell et al. (2025).

Experimental Details: soluble fraction after stress (log2 fold change); higher = more stays soluble; pooled small domains, quantitative proteomics
Recorded Conditions: stress: 50 degC
For each of the sequences below, state its soluble fraction (log2).
Answers are plain numbers.

HMAKIEVENLEETILENLKANNGFMPYNDKTSPEEIYEVFHVSKKHFKNSLGGLMKKGLIFQNEKGTKL : -0.0312
HMVRKGEINFDQLSVRARNALRNMNILFEKEILKLTEYDLKSIPNLGVKTTNELLSYIKRLQTNQKEE : -0.191
HMGKSPLDALSAREKEVLTYITRGVSINDIAAVLYLSPKTVSTHKTNLMQKLGIENNADLILFGVNHGLND : -0.513
HMSEHKFIVPEEFNLKRLDQTVAAQFEKISRTKISKIIKSSLLKVNDKVVTDQSIKIKQDDVITFTEIKDQ : 0.0288
HMNPAYTDSRMKTFLEELPVMKASLSQKHVTRFLVWQEYIGRHPDGYGKSQFFYHLKQNLVAAKG : -0.56

Please go through the list and note soluble fraction (log2) for each sequence.
1. HMYYDDEELDDYRGKASDAYTAAEVEQFEEVLTTMRPEEVHGWLRSLQLRGVALPDALKDEAYMIVSEQAE
2. HMSEPTVVAINETLTSERLDRYLTTQLPHISRGGIQRLLRKGNILVDGKPAKPTQHPVAGQTVEITWPIPK

Response given:
-0.252
-0.359

Challenge: Determine its reported soluble fraction (log2): HMTIYLSENIKRLRLEKELTQETLSEFLGVTSQSVSNWERGESYPDITMLPEIADFFKVSVDELLGVNRAE
Response given: -0.889

----------
Experimental Details: soluble fraction after stress (log2 fold change); higher = more stays soluble; pooled small domains, quantitative proteomics
Recorded Conditions: stress: 50 degC
Recorded Metric: soluble fraction (log2)
Numbers only.

List soluble fraction (log2) for every entry below, keeping the order given.
1. HMSTESAHLGERMLNQALRAMHIEPDQITEAHWQKLIRDYGLKKKSEILTDIGLGKRQNVMVAHQLLAMG
2. HMALPPPELRGATGEAVTALRPAGIALIQGKRYDVLAEGGEWIAAGAAVRVRDIRNGHLIVSDA
3. HMAITYETKVISGVNLRSAPSTSASVYQLIPKGENIHVVQKVNDYWLKVQTKDGKTGYISASSKYTNYIG

Response given:
1. -0.106
2. 0.00767
3. -0.773

Challenge: Output measured soluble fraction (log2) for this item: HMASLIGEEKALQIALEHAGVALENVAYSQVKLENDDGRWEYDTEFYSGSKEYDYEIDASTGEILGYDHD
Response given: -0.0337

----------
Experimental Details: soluble fraction after stress (log2 fold change); higher = more stays soluble; pooled small domains, quantitative proteomics
Recorded Conditions: stress: 50 degC
// label = true (1) if soluble fraction (log2) is not less than -0.2, otherwise false (0)

HMKMVEIDYGKFLTMLDTGKVKSVEIENNRIAINPSSSKDKNIYITGRMDDPELVDRLKNAKVEFTKVIP : true (1)
HMSEYVIVTGEKVNLRVGPGMDYEIAGQVVKGDKLELLASEGDWSKVKTGSGSIYYISSSLVQKA : false (0)
HMPVGSIGERLKALRLKAGLTQEEVGQHVHISKQTLYKYENGIVTNIPADKIELLATIYSVTPAYIMGWA : false (0)
HMQKPIKPVKMHTVGPKENLSSIGRMYEVNGRVLANYNNIDYDKGLTIGQVLKIPPKGTTLEQVT : true (1)
HMSQVSTKYINVSSAYVRSKPSKDGEIVTSLIKNTDVTVTGENGDWYKIKFNNYEGYIFKELLSDSKLEE : true (1)
HMNEKGTNSTINEITRISKPGRRVYVGSAEIPKVKSGRGLVLISTSKGVMTGAEAAKAKLGGELLLKV : true (1)
HMDSTLTNEIYNELYRAITHQELKPGQNLTLTMLKKQFNVSHTPIREALTRLSADGLVTYHPNKGMKVT : false (0)
HMEQLIIQEELSGKRLDQLVSLLFPSLTRAHAQKLIKEGAVLVNEKPRKPAYAVMTGELLTVELPEPE : true (1)

Challenge: Hi team, for HMIDFDEIEILSSSKIEKIENSEYLKSSIFEKDSNQYIYRLSFENRDQLKNFKKEIEDIDQIKKIDVTY , is the recorded soluble fraction (log2) at or above -0.2?
Response given: true (1)

Challenge: Confirm if soluble fraction (log2) reported for the sequence HMTALTTEDLERRFYAKTYEGESAQKRLARLEISVFGELRQGRPESDRLHDLNNAVLEKERAALNAGAVG is -0.2 or above.
Response given: true (1)

Challenge: Would you say HMGLSNYEFNSISQTVKEKLEQGPLTLKALVDETAHLFAEDKVVSVVQWLIDQRDLAYDDHGLLQWKG shows soluble fraction (log2) at minimum -0.2?
Response given: false (0)

Challenge: Could you tell me if the measured soluble fraction (log2) of HMGMAETTARILQLLGLLQSRRGWSGQELAERLGVTTRSVRRDVERLRELGYPVHASAGHGGGYQLGA reaches -0.2 or more?
Response given: false (0)

Challenge: Could you please find out whether HMSKSKSEIDKDPHFWSSLFQRIGEGESLRKIAKDSKIPKSTLWAWIRNDPQLALRYSEAQQ has soluble fraction (log2) that meets -0.2 or exceeds it?
Response given: true (1)

Challenge: Form field: soluble fraction (log2) at least -0.2? Entry: HMKEGGREEMSEIVERYGDERALMANITSVQNLMNNMKWTLDQALDALGIKGKERTLITQQLQ
Response given: true (1)

Challenge: Hello, I need to know if HMLSVRERMSAILVSLEGERYADFTGLFDPTEGKGGVTVTFLAILELLKESMIDVVQNELYGPIHVRAA has measured soluble fraction (log2) not below -0.2. Thanks!
Response given: false (0)

Challenge: Check the entry HMKNIINLVIDGELHGKRIDAVIAQKNDSLSRTRIKNLVINGNLSINDEIVSDPSKKIYKDDKVSLTIPLP : does soluble fraction (log2) equal or exceed -0.2?
Response given: true (1)

Challenge: Textbook exercise: given the entry HMEDELVMERFDINELVKSVVNANELRATQKNLSITYDILDTPLYVWADEYKVEEVVTNYLS , state whether its soluble fraction (log2) is greater than or equal to -0.2.
Response given: true (1)

Challenge: Could you tell me if the measured soluble fraction (log2) of HMATQTGTVKWFNEGKGFGFIAPDDGSKDLFAHFSEIKTTGFKTLAEAQRVEFEVTEGRKGLQASNIK reaches -0.2 or more?
Response given: true (1)

Challenge: Please check the record HMFEERKKDWNLTGLLDDVIRRYIHQLTNDELNEINLEKSSGMPDEEIKNGIKLPLAVMQQRRETWGS and state if its soluble fraction (log2) is at or above -0.2.
Response given: true (1)

Challenge: In plain terms: is recorded soluble fraction (log2) at least -0.2 for HMESVQWSVFPSAKYVTIISFDPTTSGGSATAKFKVSDEARSKGFRFRIEAAIGEGIMRSEMYVIEE ?
Response given: true (1)
